species: Homo sapiens; assay: Binding affinity to RNase L (unknown origin) expressed in Escherichia coli BL21 (DE3) assessed as thermal stability by measuring melting temperature at 60 uM incubated for 50 mins by NanoDSF analysis
endpoint: ΔTm (°C)

smi	unit of measure	ΔTm
CCOC(=O)C1=C(Nc2ccccc2)S/C(=C\c2cccc(O)c2)C1=O	°C	0.5
CCOC(=O)C1=C(Nc2ccccc2)S/C(=C\c2cc(OC)ccc2OC)C1=O	°C	0.5

1. CCOC(=O)C1=C(Nc2ccccc2)S/C(=C\c2ccc(F)c(C#N)c2)C1=O
2. CCOC(=O)C1=C(Nc2ccccc2)S/C(=C\c2ccc(O)c(OC)c2)C1=O
Would you mind telling me which has the lower recorded ΔTm between 1 and 2 ? // caller expects the label of the chosen entry
2
